- method_description: protein stability index of a GFP-peptide fusion (yeast GPS) (PSI 1-4); higher = more stable; sorted into four equal gates, so the index is relative within each strain
- measurement_parameters: pdr5∆
Quick reference: protein stability index of the listed items.
Answer with the value's number alone.

Example results:
> print(dat)
                      sequence.input  assay.result
1          GNYVIIIGHNPDENKTR [RPL2A]          3.32
2           DTRITPSKVSKIDSHVV [PRE6]          3.09
3  ATNTFGSNQQSSTGGGL [YGR119C/NUP57]          3.23
4   IQTKEQVSINSNKILVY [YIL149C/MLP2]          2.75

Next:
Given the entry ANVFRLENQKDLVIVDE [MTW1] , report its measured protein stability index.
3.36

Source listed as the supplement of paper PMC9732359.
